Measured values drawn from ChEMBL document CHEMBL1157877 for this set.

# System: Neuron
# Run Description: Neuroprotective effect against H202-induced Sprague-Dawley rat neuron injury assessed as early apoptic cells by annexin V-propidium iodide staining by flow cytometry (reference value: 3.09% +/- 1.40%)
# Format: functional
Provide the reported Activity of each item.

[ask] Suppose we examine the compound CCCOc1ccc(C(C)(O)/C=C/C2C(C)=CCCC2(C)C)cc1 (stereo unspecified) ; what Activity value has been reported?
[reply] 4.31%

[ask] Note, next up: COc1cc(/C=C/C(=O)CC(=O)/C=C/c2ccc(O)c(OC)c2)ccc1O
[reply] 24.15%

[ask] Now the compound CCOc1ccc(C(C)(O)/C=C/C2C(C)=CCCC2(C)C)cc1 (stereo unspecified)
[reply] 31.4%

[ask] Repeat with CC1=CCCC(C)(C)C1/C=C/C(C)(O)c1ccc(C(F)(F)F)cc1 (stereo unspecified)
[reply] 72.6%

[ask] Now give it for COc1ccc(C(C)(O)/C=C/C2C(C)=CCCC2(C)C)cc1 (stereo unspecified) too.
[reply] 41.37%

[ask] Quick one: COc1ccc(C(C)(O)/C=C/C2C(C)=CCCC2(C)C)cc1OC (stereo unspecified)
[reply] 57.36%

[ask] Same read-out for CCCCCOc1ccc(C(C)(O)/C=C/C2C(C)=CCCC2(C)C)cc1 (stereo unspecified) ?
[reply] 25.77%

[ask] Now try CC1=CCCC(C)(C)C1/C=C/C(C)(O)c1ccc(C(C)(C)C)cc1 (stereo unspecified) .
[reply] 62.1%

[ask] And CCCOc1ccc(C(C)(O)/C=C/C2=C(C)CCCC2(C)C)cc1 (stereo unspecified) ?
[reply] 53.84%

[ask] # repeat for COc1ccccc1C(C)(O)/C=C/C1C(C)=CCCC1(C)C (stereo unspecified)
[reply] 39.8%

[ask] How about this compound: CC1=CCCC(C)(C)C1/C=C/C(C)(O)c1cc(C)ccc1C (stereo unspecified)
[reply] 55.1%
